Tested on: MERS-CoV
Experiment notes: microbe, parasite or virus in culture
Format: cell-based
Condition summary: Middle East respiratory syndrome-related coronavirus, Huh-7, read-out: EC50 in cell culture, MERS-CoV
Measure name: EC50 (nM)
Kindly answer with a numeric value in nM, unit omitted.

Look up EC50 for this compound: CC(C)C[C@H](NC(=O)OC1CCC(F)(F)CC1)C(=O)N[C@@H](C[C@@H]1CCNC1=O)C(O)S(=O)(=O)O (stereo partly drawn)
210

Also, CC(C)C[C@H](NC(=O)OC1CCCCC1)C(=O)N[C@@H](C[C@@H]1CCNC1=O)C(O)S(=O)(=O)O (stereo partly drawn) please.
80

Also, CC(C)C[C@H](NC(=O)OCC1CCC(F)(F)CC1)C(=O)N[C@H](C=O)C[C@@H]1CCNC1=O please.
40

Also, CCCCC1CCC(OC(=O)N[C@@H](CC(C)C)C(=O)N[C@@H](C[C@@H]2CCNC2=O)C(O)S(=O)(=O)O)CC1 (stereo partly drawn) please.
530

Also, CCCC1CCC(OC(=O)N[C@@H](CC(C)C)C(=O)N[C@H](C=O)C[C@@H]2CCNC2=O)CC1 (stereo partly drawn) please.
50
